Where do the numbers come from? From ChEMBL document CHEMBL3727356.

Target: Pyruvate kinase PKLR (Homo sapiens, UniProt P30613, R532W)
Sequence (P30613 whole entry R532W): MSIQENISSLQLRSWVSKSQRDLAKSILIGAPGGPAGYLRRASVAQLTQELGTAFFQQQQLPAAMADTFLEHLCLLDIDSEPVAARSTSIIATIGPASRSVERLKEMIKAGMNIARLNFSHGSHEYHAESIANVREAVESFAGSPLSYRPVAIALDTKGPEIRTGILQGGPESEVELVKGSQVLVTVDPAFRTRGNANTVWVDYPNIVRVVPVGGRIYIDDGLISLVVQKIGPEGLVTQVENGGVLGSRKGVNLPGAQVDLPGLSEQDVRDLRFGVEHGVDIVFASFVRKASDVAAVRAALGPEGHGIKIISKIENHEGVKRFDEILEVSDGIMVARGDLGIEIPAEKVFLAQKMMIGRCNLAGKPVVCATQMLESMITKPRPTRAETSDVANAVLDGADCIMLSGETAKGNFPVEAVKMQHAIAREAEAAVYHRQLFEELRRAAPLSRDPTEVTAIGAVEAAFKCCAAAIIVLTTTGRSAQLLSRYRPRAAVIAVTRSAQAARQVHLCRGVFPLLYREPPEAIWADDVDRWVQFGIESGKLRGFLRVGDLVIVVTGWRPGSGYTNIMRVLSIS
Assay: Activation of PKR R532W mutant (unknown origin) incubated for 60 mins in presence of ADP, PEP and NADH by Spectraax microplate reader based assay
Below, each entry is listed with its recorded AC50.

Annotate the compound CC(F)(F)CCC1(O)CCN(C(=O)c2ccc(NS(=O)(=O)c3cccc4nc(N)cnc34)cc2)CC1 with its measured AC50.
< 100 nM

Annotate the compound O=C(c1ccc(NS(=O)(=O)c2cccc3cccnc23)cc1F)N1CCC(O)(c2ccccc2Cl)CC1 with its measured AC50.
< 100 nM

Annotate the compound Nc1cnc2c(S(=O)(=O)Nc3ccc(C(=O)N4CCC(O)(CCCC(F)(F)F)CC4)cc3)cccc2n1 with its measured AC50.
< 100 nM

Annotate the compound CC(C)(F)CC1(O)CCN(C(=O)c2ccc(NS(=O)(=O)c3cccc4scnc34)cc2)CC1 with its measured AC50.
< 100 nM

Annotate the compound O=C(c1ccc(NS(=O)(=O)c2cccc3c(O)ncnc23)cc1)N1CCC(O)(CCCC(F)(F)F)CC1 with its measured AC50.
< 100 nM

====

Target: Pyruvate kinase PKLR (Homo sapiens, UniProt P30613)
Sequence (P30613 whole entry): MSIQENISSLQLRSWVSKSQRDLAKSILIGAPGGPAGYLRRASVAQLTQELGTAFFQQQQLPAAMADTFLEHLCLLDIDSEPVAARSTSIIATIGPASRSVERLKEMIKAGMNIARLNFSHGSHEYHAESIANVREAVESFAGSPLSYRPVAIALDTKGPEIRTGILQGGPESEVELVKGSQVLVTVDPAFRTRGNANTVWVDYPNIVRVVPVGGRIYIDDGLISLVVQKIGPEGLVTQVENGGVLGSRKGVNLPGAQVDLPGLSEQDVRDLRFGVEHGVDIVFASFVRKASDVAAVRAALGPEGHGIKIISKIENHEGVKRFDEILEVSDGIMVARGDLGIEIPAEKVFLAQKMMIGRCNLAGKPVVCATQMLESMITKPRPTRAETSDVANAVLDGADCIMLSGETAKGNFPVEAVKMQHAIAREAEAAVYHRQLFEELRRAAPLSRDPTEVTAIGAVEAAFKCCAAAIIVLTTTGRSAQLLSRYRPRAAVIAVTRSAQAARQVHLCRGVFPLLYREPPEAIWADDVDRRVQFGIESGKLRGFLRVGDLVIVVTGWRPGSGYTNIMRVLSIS
Test: Activation of wild type PKR (unknown origin) incubated for 60 mins in presence of ADP, PEP and NADH by Spectraax microplate reader based assay
Below, each entry is listed with its recorded AC50.

Annotate the compound O=C(c1ccc(NS(=O)(=O)c2cccc3cccnc23)cc1)N1CCC(O)(Cc2cccnc2F)CC1 with its measured AC50.
< 100 nM

Annotate the compound Cc1cc(C(=O)N2CCC(O)(c3ccccc3Cl)CC2)ccc1NS(=O)(=O)c1cccc2cccnc12 with its measured AC50.
< 100 nM

Annotate the compound O=C(c1ccc(NS(=O)(=O)c2cccc3cccnc23)cc1)N1CCC(O)(c2ncccc2F)CC1 with its measured AC50.
< 100 nM

Annotate the compound CC(C)CC1(O)CCN(C(=O)c2ccc(NS(=O)(=O)c3cccc(O)c3N)cc2)CC1 with its measured AC50.
< 100 nM

---
Annotate the compound O=C(c1ccc(NS(=O)(=O)c2cccc3cccnc23)cc1)N1CCC(CO)(Cc2ccccc2)CC1 with its measured AC50.
< 100 nM

====

Molecular target: Pyruvate kinase PKLR (Homo sapiens, UniProt P30613, R510Q)
Sequence (P30613 whole entry R510Q): as the sequence (P30613 whole entry R532W) above, with R510Q, W532R counted along it
Assay: Activation of PKR R510Q mutant (unknown origin) incubated for 60 mins in presence of ADP, PEP and NADH by Spectraax microplate reader based assay
Below, each entry is listed with its recorded AC50.

Give measured AC50 for CCn1cc(CC2(O)CCN(C(=O)c3ccc(NS(=O)(=O)c4cccc5scnc45)cc3)CC2)cn1 (Pyruvate kinase PKLR (Homo sapiens, UniProt P30613, R510Q)).
> 10 µM

Give measured AC50 for O=C(c1ccc(NS(=O)(=O)c2cccc3nsnc23)cc1)N1CCC(O)(c2ccccc2)CC1 (Pyruvate kinase PKLR (Homo sapiens, UniProt P30613, R510Q)).
> 10 µM

Give measured AC50 for O=C(c1ccc(NS(=O)(=O)c2cccc3cccnc23)cc1)N1CCC(O)(CC2CCC2)CC1 (Pyruvate kinase PKLR (Homo sapiens, UniProt P30613, R510Q)).
< 0.1 µM

---
Give measured AC50 for CC(C)CC1(O)CCN(C(=O)c2ccc(NS(=O)(=O)c3cccc4ncc(N)nc34)cc2)CC1 (Pyruvate kinase PKLR (Homo sapiens, UniProt P30613, R510Q)).
< 0.1 µM

Give measured AC50 for O=C(c1ccc(NS(=O)(=O)c2cccc3cccnc23)cc1)N1CCC(O)(c2ccc(F)c(Br)n2)CC1 (Pyruvate kinase PKLR (Homo sapiens, UniProt P30613, R510Q)).
< 0.1 µM

Give measured AC50 for CC(C)CC1(O)CCN(C(=O)c2ccc(NS(=O)(=O)c3cccc4ncc(O)nc34)cc2)CC1 (Pyruvate kinase PKLR (Homo sapiens, UniProt P30613, R510Q)).
> 10 µM

Give measured AC50 for O=C(c1ccc(NS(=O)(=O)c2cccc3scnc23)cc1)N1CCC(O)(c2ncc(Cl)s2)CC1 (Pyruvate kinase PKLR (Homo sapiens, UniProt P30613, R510Q)).
> 10 µM

Give measured AC50 for Nc1nc2c(S(=O)(=O)Nc3ccc(C(=O)N4CCC(O)(CCCC(F)(F)F)CC4)cc3)cccc2s1 (Pyruvate kinase PKLR (Homo sapiens, UniProt P30613, R510Q)).
< 0.1 µM

Give measured AC50 for O=C(c1ccc(NS(=O)(=O)c2cccc3cccnc23)cn1)N1CCC(O)(c2ccccc2)CC1 (Pyruvate kinase PKLR (Homo sapiens, UniProt P30613, R510Q)).
> 10 µM
